Target: T1, FZD8 CRD (Homo sapiens, UniProt Q9H461)
T1 construct: K31-D155; GPI anchor signal (C); expressed in transfected cells; host or cells: CHO cells, lentiviral pLenti-puro
T1 sequence (Q9H461 31-155): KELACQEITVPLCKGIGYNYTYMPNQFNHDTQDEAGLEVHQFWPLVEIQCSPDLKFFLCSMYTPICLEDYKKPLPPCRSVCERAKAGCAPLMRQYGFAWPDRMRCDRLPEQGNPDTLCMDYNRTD
Assay: Immunofluorescence of anti-FZD5 Fab binding to CHO cells overexpressing Frizzled CRD
Design: key: −: no binding; +: very weak binder; ++: weak binder; +++: good binder; ++++: very good binder
Description: Plasmids: pLCKO lentiviral vector used for knockout (TKO) library construction and expression of individual gRNAs was constructed as described previously (Hart et al., 2015). Briefly, single guide RNA (sgRNA) scaffold was amplified from px330 (Addgene 42230) and cloned into pLKO.TRC005 lentiviral vector (Broad Institute, Cambridge, Mass.) using AgeI/EcoRI restriction sites. BfuAI sites were added at the 5′ end of the sgRNA scaffold for cloning the TKO library or individual gRNA target sequences. […]
MEASURED_ENDPOINT: Immunofluorescence binding, Frizzled CRD overexpressed on CHO cells: FZD8

Fab-2909: anti-FZD5 Fab with antibody variable region Fv-2909; CDR SEQ ID NOs: 35, 36, 48, 87, 124, 161 (antibody, V domains shown) VH: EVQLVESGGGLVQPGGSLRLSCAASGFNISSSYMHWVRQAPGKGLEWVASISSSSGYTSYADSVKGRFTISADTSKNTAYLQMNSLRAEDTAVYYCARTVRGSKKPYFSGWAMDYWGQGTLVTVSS VL: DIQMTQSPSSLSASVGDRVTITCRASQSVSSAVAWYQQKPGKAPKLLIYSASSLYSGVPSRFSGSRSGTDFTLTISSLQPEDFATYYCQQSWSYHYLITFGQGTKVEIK    −
Fab-2926: anti-FZD5 Fab with antibody variable region Fv-2926; CDR SEQ ID NOs: 35, 36, 65, 103, 141, 173 (antibody, V domains shown) VH: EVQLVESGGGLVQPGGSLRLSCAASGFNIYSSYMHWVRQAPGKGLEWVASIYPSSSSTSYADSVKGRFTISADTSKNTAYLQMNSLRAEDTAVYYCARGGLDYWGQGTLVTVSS VL: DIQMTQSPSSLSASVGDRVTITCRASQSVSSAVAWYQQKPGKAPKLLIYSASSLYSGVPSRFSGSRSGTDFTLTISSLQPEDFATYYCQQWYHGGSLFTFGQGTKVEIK    +
Fab-2921: anti-FZD5 Fab with antibody variable region Fv-2921; CDR SEQ ID NOs: 35, 36, 60, 98, 136, 162 (antibody, V domains shown) VH: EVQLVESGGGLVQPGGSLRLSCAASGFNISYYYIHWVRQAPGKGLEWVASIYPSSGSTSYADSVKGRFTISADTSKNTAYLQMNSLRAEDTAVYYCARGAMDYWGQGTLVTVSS VL: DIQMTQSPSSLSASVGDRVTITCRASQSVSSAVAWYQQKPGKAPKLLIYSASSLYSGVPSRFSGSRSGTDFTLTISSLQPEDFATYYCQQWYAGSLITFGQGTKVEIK    +
